Biological target: Ribosomal protein S6 kinase alpha-1 (Homo sapiens)
Test: Inhibition of full length NanoLuc fused RSK1b (unknown origin) transfected in HEK293T cells using NanoBRET NanoGlo substrate incubated for 2 hrs in presence of tracer by NanoBRET assay
pIC50: −log10 of the molar value.
Measurement Kind: pIC50

1) CNc1ncc2cc(-c3cc(F)ccc3F)c(=O)n(CCCCN)c2n1: < 4.35
